Cited source for all entries: paper PMC5944358

Measured koff values are reported for all entries that follow.
molecular target: HIV-1 YU2 gp120 (HIV-1 YU2, UniProt P35961 32-498); experiment: SPR
recorded-metric: koff

>  <binder>
MVN_G43E/Q81K (natural protein) MPNFSHTCSSINYDPDSTILSAECQARDGEWLPTELRLSDHIENIDGELQFGDQNFQETCQDCHLEFGDGEQSVWLVCTCKTMDGEWKSTQILLDSQIDNNDSQLEIG

>  <recorded-metric>
koff

>  <reported-result>
0.000173 s⁻¹

$$$$
>  <binder>
MVN_G43E/M83R (natural protein) MPNFSHTCSSINYDPDSTILSAECQARDGEWLPTELRLSDHIENIDGELQFGDQNFQETCQDCHLEFGDGEQSVWLVCTCQTRDGEWKSTQILLDSQIDNNDSQLEIG

>  <recorded-metric>
koff

>  <reported-result>
0.000103 s⁻¹

$$$$
>  <binder>
MVN_Q81K/G85Q (natural protein) MPNFSHTCSSINYDPDSTILSAECQARDGEWLPTELRLSDHIGNIDGELQFGDQNFQETCQDCHLEFGDGEQSVWLVCTCKTMDQEWKSTQILLDSQIDNNDSQLEIG

>  <recorded-metric>
koff

>  <reported-result>
9.4e-05 s⁻¹

$$$$
>  <binder>
MVN_M83R (natural protein) MPNFSHTCSSINYDPDSTILSAECQARDGEWLPTELRLSDHIGNIDGELQFGDQNFQETCQDCHLEFGDGEQSVWLVCTCQTRDGEWKSTQILLDSQIDNNDSQLEIG

>  <recorded-metric>
koff

>  <reported-result>
0.000145 s⁻¹

$$$$
>  <binder>
MVN_G43E/Q81K/M83R/G85Q (natural protein) MPNFSHTCSSINYDPDSTILSAECQARDGEWLPTELRLSDHIENIDGELQFGDQNFQETCQDCHLEFGDGEQSVWLVCTCKTRDQEWKSTQILLDSQIDNNDSQLEIG

>  <recorded-metric>
koff

>  <reported-result>
0.000156 s⁻¹

$$$$
>  <binder>
MVN_Q81K/M83R/G85Q (natural protein) MPNFSHTCSSINYDPDSTILSAECQARDGEWLPTELRLSDHIGNIDGELQFGDQNFQETCQDCHLEFGDGEQSVWLVCTCKTRDQEWKSTQILLDSQIDNNDSQLEIG

>  <recorded-metric>
koff

>  <reported-result>
0.000232 s⁻¹

$$$$
>  <binder>
Microvirin (MVN) (natural protein) MPNFSHTCSSINYDPDSTILSAECQARDGEWLPTELRLSDHIGNIDGELQFGDQNFQETCQDCHLEFGDGEQSVWLVCTCQTMDGEWKSTQILLDSQIDNNDSQLEIG

>  <recorded-metric>
koff

>  <reported-result>
0.000445 s⁻¹

$$$$
>  <binder>
MVN_G85Q (natural protein) MPNFSHTCSSINYDPDSTILSAECQARDGEWLPTELRLSDHIGNIDGELQFGDQNFQETCQDCHLEFGDGEQSVWLVCTCQTMDQEWKSTQILLDSQIDNNDSQLEIG

>  <recorded-metric>
koff

>  <reported-result>
0.000191 s⁻¹

$$$$
